Values were extracted from patent US20210253718A1.

- measured_on: T1, FZD4 CRD (Homo sapiens, UniProt Q9ULV1)
- T1 construct: E42-V167; GPI anchor signal (C); expressed in transfected cells; host or cells: CHO cells, lentiviral pLenti-puro
- T1 sequence (Q9ULV1 42-167): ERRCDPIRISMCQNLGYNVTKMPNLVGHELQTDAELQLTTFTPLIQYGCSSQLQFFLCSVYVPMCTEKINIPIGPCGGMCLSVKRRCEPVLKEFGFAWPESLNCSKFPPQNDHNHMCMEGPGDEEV
- method_notes: Flow cytometry of anti-FZD5 Fab binding to CHO cells overexpressing Frizzled CRD
readout_kind: Median fluorescence, Frizzled CRD overexpressed on CHO cells: FZD4

Ask | Any idea what its Median fluorescence, Frizzled CRD overexpressed on CHO cells: FZD4 is? The molecule is Fab-2902: anti-FZD5 Fab with antibody variable region Fv-2902; CDR SEQ ID NOs: 35, 36, 41, 80, 117, 153 (antibody, V domains shown) VH: EVQLVESGGGLVQPGGSLRLSCAASGFNISYYYIHWVRQAPGKGLEWVASISSSSSSTSYADSVKGRFTISADTSKNTAYLQMNSLRAEDTAVYYCARGALDYWGQGTLVTVSS VL: DIQMTQSPSSLSASVGDRVTITCRASQSVSSAVAWYQQKPGKAPKLLIYSASSLYSGVPSRFSGSRSGTDFTLTISSLQPEDFATYYCQQWYAFGALITFGQGTKVEIK
Reply | 10.27
